pIC50: −log10 of the molar value.
As an illustration, consider measured pIC50 for compounds on Cyclin-dependent kinase 5/CDK5 activator 1 (Homo sapiens).
Sequence (Q00535 whole entry): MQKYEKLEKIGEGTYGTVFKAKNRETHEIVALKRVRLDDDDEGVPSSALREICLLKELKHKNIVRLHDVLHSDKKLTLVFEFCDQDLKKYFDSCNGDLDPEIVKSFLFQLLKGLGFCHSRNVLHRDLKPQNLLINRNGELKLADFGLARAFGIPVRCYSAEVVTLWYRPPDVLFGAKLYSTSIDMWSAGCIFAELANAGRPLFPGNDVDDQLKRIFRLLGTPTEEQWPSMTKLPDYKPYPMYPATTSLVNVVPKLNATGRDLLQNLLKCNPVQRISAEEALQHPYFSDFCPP
Sequence (Q15078 whole entry, further chain): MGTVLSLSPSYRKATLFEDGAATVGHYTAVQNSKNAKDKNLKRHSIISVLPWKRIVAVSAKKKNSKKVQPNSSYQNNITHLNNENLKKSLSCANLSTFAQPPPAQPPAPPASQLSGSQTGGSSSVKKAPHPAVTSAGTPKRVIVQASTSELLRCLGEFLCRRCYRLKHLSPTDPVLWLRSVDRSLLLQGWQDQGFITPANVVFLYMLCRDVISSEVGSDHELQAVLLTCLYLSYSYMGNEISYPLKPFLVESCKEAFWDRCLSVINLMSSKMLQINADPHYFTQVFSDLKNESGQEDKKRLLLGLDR
MEASURED_METRIC: pIC50

1: N#CCSc1nnc(Cc2c(NCCC(=O)O)sc3c2CCCC3)n1NC(=O)c1ccc(Cl)cc1
2: CC(=O)Nn1c(Cc2c(NC(=O)c3ccccc3)sc3c2CCCC3)nnc1SCSc1nnc(Cc2c(NC(=O)c3ccccc3)sc3c2CCCC3)n1NC(C)=O
1 or 2 : whose pIC50 is greater? Give the label of your selection. 1
(1: 6.37, 2: 6.12)

a: CC(=O)Nc1sc2c(c1Cc1nnc(SCC(=O)NNC(=O)c3ccccc3)n1NC(=O)c1ccccc1)CCCC2
b: NNC(=O)CSc1nnc(Cc2c(NC(=O)c3ccccc3)sc3c2CCCC3)n1NC(=O)c1ccccc1
c: CC(=O)Nc1sc2c(c1Cc1nnc(SCSc3nnc(Cc4c(NC(C)=O)sc5c4CCCC5)n3NC(C)=O)n1NC(C)=O)CCCC2
Ordering criterion: pIC50; begin with the maximum. Order the labels as requested and list them. b, a, c

1: CC(=O)Nc1sc2c(c1Cc1nnc(S)n1N)CCCC2
2: COC(=O)CSc1nnc(Cc2c(NCCC(=O)O)sc3c2CCCC3)n1NC(C)=O
3: O=C(O)CCNc1sc2c(c1Cc1nnc(SCC(=O)NNC(=O)CCl)n1NC(=O)c1ccc(Cl)cc1)CCCC2
List from greatest to least pIC50. Reply with the item labels sorted in the order that was asked for. 3, 1, 2
(3: 6.73, 1: 6.41, 2: 6.13)
